Test: Tmax in carboxylesterase 1 knockout C57BL/6 mouse brain at 10 mg/kg, po administered as single dose measured upto 8 hrs by LC-MS/MS analysis
Type: ADME, organism-based
Measured Endpoint: Tmax (min)
Give the quantity in min, number only.

Prompt line: Consider the compound shown here: `COc1cc(-c2nc(-c3cccs3)c(-c3ccccc3)[nH]2)cc(OC)c1O` What is its recorded Tmax?
Response line: 30

====

Assay: Half life in carboxylesterase 1 knockout C57BL/6 mouse plasma at 10 mg/kg, po administered as single dose measured upto 8 hrs by LC-MS/MS analysis
Format: ADME, organism-based
Measured Endpoint: half-life (min)
# unit: min | format: bare number

Prompt line: // half-life lookup, key: `COc1cc(-c2nc(-c3cccs3)c(-c3ccccc3)[nH]2)cc(OC)c1O`
Response line: 27.6

====

Experiment: Tmax in carboxylesterase 1 knockout C57BL/6 mouse plasma at 16.62 mg/kg, po administered as single dose measured upto 8 hrs by LC-MS/MS analysis
Assay type: ADME, organism-based
Measured Endpoint: Tmax (h)
Just the number please, in h, no unit attached.

Prompt line: For CCC1CC(N2CCCCC2)CC(CC)N1C(=O)Oc1c(OC)cc(-c2nc(-c3ccccc3)c(-c3cccs3)[nH]2)cc1OC (stereo unspecified) , what is its reported Tmax?
Response line: 2

====

Assay: Drug release in carboxylesterase 1 knockout C57BL/6 mouse plasma at 10 mg/kg, po administered as single dose measured after 2 hrs by LC-MS/MS analysis
Assay type: ADME, organism-based
Conditions: in vivo, read-out: Activity
Measured Endpoint: concentration (nM)
Expressed in nM, but write only the number.

Prompt line: Please give the measured concentration for this molecule: `COc1cc(-c2nc(-c3cccs3)c(-c3ccccc3)[nH]2)cc(OC)c1O`
Response line: 23

====

Test: Metabolic stability of the compound in carboxylesterase 1 knockout mouse plasma assessed as parent compound remaining at 10 uM measured after 1 hr in by UPLC analysis
Assay type: ADME, cell-free
Measured Endpoint: Stability (%)
Respond with the bare value in %.

Prompt line: Would you mind telling me what Stability value was observed for `CCCCCCCNC(=O)Oc1c(OC)cc(-c2nc(-c3ccccc3)c(-c3cccs3)[nH]2)cc1OC` ?
Response line: 60

Prompt line: # repeat for `COc1cc(-c2nc(-c3ccccc3)c(-c3cccs3)[nH]2)cc(OC)c1OP(=O)(O)O`
Response line: 91

Prompt line: Lookup `COc1cc(-c2nc(-c3ccccc3)c(-c3cccs3)[nH]2)cc(OC)c1OC(C)=O`
Response line: 28

Prompt line: Now consider `COc1cc(-c2nc(-c3ccccc3)c(-c3cccs3)[nH]2)cc(OC)c1OC(=O)N1C2CCCC1CC2` .
Response line: 85

Prompt line: Moving on to `COc1cc(-c2nc(-c3ccccc3)c(-c3cccs3)[nH]2)cc(OC)c1OC(=O)C1=CN(C)C=CC1`
Response line: 52

====

Experiment: Metabolic stability of the compound in carboxylesterase 1 knockout mouse plasma assessed as parent compound remaining at 10 uM measured after 1 hr in by UPLC analysis
Format: ADME, cell-free
Measured Endpoint: Stability (%)
Enter your answer as a number in %; do not include the unit.

Prompt line: Any idea what its Stability is? The compound is COc1cc(-c2nc(-c3ccccc3)c(-c3cccs3)[nH]2)cc(OC)c1OC(=O)OC(OC(=O)C(C)(C)C)c1ccccc1 (centres undefined)
Response line: 83

Prompt line: What do you get for COc1cc(-c2nc(-c3ccccc3)c(-c3cccs3)[nH]2)cc(OC)c1OC(=O)N1C2CCC1CC(N1CCCCC1)C2 (centres undefined) ?
Response line: 87

Prompt line: Now give it for `COc1cc(-c2nc(-c3ccccc3)c(-c3cccs3)[nH]2)cc(OC)c1OC(=O)N1CCC(N2CCCCC2)CC1` too.
Response line: 90

Prompt line: And `CCCCCNC(=O)Oc1c(OC)cc(-c2nc(-c3ccccc3)c(-c3cccs3)[nH]2)cc1OC` ?
Response line: 60

====

Test: Cmax in carboxylesterase 1 knockout C57BL/6 mouse plasma at 10 mg/kg, po administered as single dose measured upto 8 hrs by LC-MS/MS analysis
Type: ADME, organism-based
Parameters: time < 8 hrs, dose 10 mg/kg, route po
Conditions: in vivo
Measured Endpoint: Cmax (nM)
// return numeric value only (unit: nM, not printed)

Prompt line: GET /values?readout=Cmax&item= `COc1cc(-c2nc(-c3cccs3)c(-c3ccccc3)[nH]2)cc(OC)c1O`
Response line: 307

====

Assay: Metabolic stability of the compound in carboxylesterase 1 knockout mouse brain assessed as parent compound remaining at 10 uM measured after 1 hr in by UPLC analysis
Type: ADME, tissue-based
Measured Endpoint: Stability (%)
The reply should be a number in %, with the unit left off.

Prompt line: Looking for the measured Stability of CCC1CCCC(CC)N1C(=O)Oc1c(OC)cc(-c2nc(-c3ccccc3)c(-c3cccs3)[nH]2)cc1OC (stereo not given) , can you help?
Response line: 90

Prompt line: Same for `COc1cc(-c2nc(-c3ccccc3)c(-c3cccs3)[nH]2)cc(OC)c1OC(=O)C1=CN(C)C=CC1`
Response line: 46

Prompt line: Also check `CCCCCNC(=O)Oc1c(OC)cc(-c2nc(-c3ccccc3)c(-c3cccs3)[nH]2)cc1OC`
Response line: 68

Prompt line: Repeat for the following compound: `CCCCCCCNC(=O)Oc1c(OC)cc(-c2nc(-c3ccccc3)c(-c3cccs3)[nH]2)cc1OC`
Response line: 84

Prompt line: How about this compound: `COc1cc(-c2nc(-c3ccccc3)c(-c3cccs3)[nH]2)cc(OC)c1OC(C)=O`
Response line: 6

Prompt line: Now try `COc1cc(-c2nc(-c3ccccc3)c(-c3cccs3)[nH]2)cc(OC)c1OCOP(=O)(O)O` .
Response line: 1

Prompt line: Another compound to look at: `CCCCCN(C)C(=O)Oc1c(OC)cc(-c2nc(-c3ccccc3)c(-c3cccs3)[nH]2)cc1OC`
Response line: 86

Prompt line: Moving on to the next compound: `COc1cc(-c2nc(-c3ccccc3)c(-c3cccs3)[nH]2)cc(OC)c1OC(=O)N1CCC(N2CCCCC2)CC1`
Response line: 48

Prompt line: Try this compound too: `COc1cc(-c2nc(-c3ccccc3)c(-c3cccs3)[nH]2)cc(OC)c1OP(=O)(O)O`
Response line: 102

Prompt line: Field entry: COc1cc(-c2nc(-c3ccccc3)c(-c3cccs3)[nH]2)cc(OC)c1OC(=O)N1C2CCC1CC(N1CCCCC1)C2 (stereo not given)
Response line: 84

====

Assay: Metabolic stability of the compound in carboxylesterase 1 knockout mouse plasma assessed as parent compound remaining at 10 uM measured after 1 hr in by UPLC analysis
Format: ADME, cell-free
Record form. Attribute: Stability. Fill in for each entry.
Enter your answer as a number in %; do not include the unit.

Prompt line: What Stability value was documented for this compound, `COc1cc(-c2nc(-c3ccccc3)c(-c3cccs3)[nH]2)cc(OC)c1OC(=O)C(C)(C)C` ?
Response line: 1

Prompt line: Consider next the compound `COc1cc(-c2nc(-c3ccccc3)c(-c3cccs3)[nH]2)cc(OC)c1OCOP(=O)(O)O` in the same way.
Response line: 96

Prompt line: What do you get for `COc1cc(-c2nc(-c3ccccc3)c(-c3cccs3)[nH]2)cc(OC)c1OCOP(=O)(O)OCOC(=O)OC(C)C` ?
Response line: 100

Prompt line: Same lookup for `CCCCCN(C)C(=O)Oc1c(OC)cc(-c2nc(-c3ccccc3)c(-c3cccs3)[nH]2)cc1OC` , please.
Response line: 50

Prompt line: Would you kindly repeat that for CCC1CCCC(CC)N1C(=O)Oc1c(OC)cc(-c2nc(-c3ccccc3)c(-c3cccs3)[nH]2)cc1OC (centres undefined) ?
Response line: 78

Prompt line: Please do the same for `COc1cc(-c2nc(-c3ccccc3)c(-c3cccs3)[nH]2)cc(OC)c1OC(=O)N(C)C` as well.
Response line: 96

Prompt line: Another: `COc1cc(-c2nc(-c3cccs3)c(-c3ccccc3)[nH]2)cc(OC)c1O`
Response line: 103

Prompt line: Subsequent entry: `CCCCCC(=O)Oc1c(OC)cc(-c2nc(-c3ccccc3)c(-c3cccs3)[nH]2)cc1OC`
Response line: 13

Prompt line: Also need CCC1CC(N2CCCCC2)CC(CC)N1C(=O)Oc1c(OC)cc(-c2nc(-c3ccccc3)c(-c3cccs3)[nH]2)cc1OC (centres undefined) , thanks.
Response line: 92

====

Experiment: Stability in carboxylesterase 1 knockout C57BL/6 mouse brain assessed as intact compound level at 16.62 mg/kg, po administered as single dose measured upto 8 hrs by LC-MS/MS analysis
Format: ADME, organism-based
Conditions: read-out: Stability
Measured Endpoint: concentration at 8 h (nM)
Give just the number in nM; leave the unit off.

Prompt line: So what does the record say about concentration at 8 h for CCC1CC(N2CCCCC2)CC(CC)N1C(=O)Oc1c(OC)cc(-c2nc(-c3ccccc3)c(-c3cccs3)[nH]2)cc1OC (stereo unspecified) ?
Response line: 35.2
